# Test system: Enterococcus faecalis
# protocol_details: MIC value was measured against streptococcus faecalis.
# Format: functional
Here, each record is paired with measured MIC data.
Hi! Could you send only the number? It should be in µg/mL, unit omitted.

Worked examples follow.
molecule	u	assay_value
CC[C@H]1OC(=O)[C@H](C)[C@@H](OC2CC(C)(OC)C(O)C(C)O2)[C@H](C)[C@@H](OC2OC(C)CC(N(C)C)C2O)[C@](C)(O)C[C@@H](C)[C@@H](N)[C@H](C)[C@@H](O)[C@H]1C (some centres not stated)	µg/mL	1
CC[C@H]1OC(=O)[C@H](C)[C@@H](OC2CC(C)(OC)C(O)C(C)O2)[C@H](C)[C@@H](OC2OC(C)CC(N(C)C)C2O)[C@](C)(O)C[C@@H](C)/C(=N\O)[C@H](C)[C@@H](O)[C@]1(C)O (some centres not stated)	µg/mL	0.06
CC[C@H]1OC(=O)[C@H](C)[C@@H](OC2CC(C)(OC)C(O)C(C)O2)[C@H](C)[C@@H](OC2OC(C)CC(N(C)C)C2O)[C@](C)(O)C[C@@H](C)[C@H](N)[C@H](C)[C@@H](O)[C@H]1C (some centres not stated)	µg/mL	0.12
CC[C@H]1OC(=O)[C@H](C)[C@@H](OC2CC(C)(OC)C(O)C(C)O2)[C@H](C)[C@@H](OC2OC(C)CC(N(C)C)C2O)[C@](C)(O)C[C@@H](C)[C@H](NCCCCN)[C@H](C)[C@@H](O)[C@]1(C)O (some centres not stated)	µg/mL	8
CCCCC/C=C\CCCN[C@@H]1[C@H](C)[C@@H](O)[C@](C)(O)[C@@H](CC)OC(=O)[C@H](C)[C@@H](OC2CC(C)(OC)C(O)C(C)O2)[C@H](C)[C@@H](OC2OC(C)CC(N(C)C)C2O)[C@](C)(O)C[C@H]1C (some centres not stated)	µg/mL	0.25

(Q) Quick check: MIC of CCCN[C@@H]1[C@H](C)[C@@H](O)[C@](C)(O)[C@@H](CC)OC(=O)[C@H](C)[C@@H](OC2CC(C)(OC)C(O)C(C)O2)[C@H](C)[C@@H](OC2OC(C)CC(N(C)C)C2O)[C@](C)(O)C[C@H]1C (some centres not stated) ?
(A) 0.12

(Q) Quick check: MIC of CC[C@H]1OC(=O)[C@H](C)[C@@H](OC2CC(C)(OC)C(O)C(C)O2)[C@H](C)[C@@H](OC2OC(C)CC(N(C)C)C2O)[C@](C)(O)C[C@@H](C)/C(=N\O)[C@H](C)[C@@H](O)[C@H]1C (some centres not stated) ?
(A) 1
